Origin of measurements: patent US9334271B2

Test system: cellular mTOR kinase activity (phosphorylation of Thr 389 of S6K1) in TSC1-/- MEFs
ASSAY_SUMMARY: Test 2: Cellular mTOR assay (P-P70S6K T389 Surefire)
Type: cell-based
TEST_CONTEXT: Mus musculus, 1 h, read-out: Test 2: T389 cellular assay IC50 (nM)
Lab note: anything with IC50 below 500 nM is marked fulfilled; values at 500 nM or higher are marked not fulfilled.

[[record]]
compound = "CC[C@@H]1COCCN1c1nc(N2CCOC[C@H]2C)c2nc(-c3cccc4[nH]ccc34)[nH]c2n1"
label = "fulfilled"

[[record]]
compound = "C[C@H]1COCCN1c1nc(N2CCOC[C@@H]2C)c2nc(-c3ccc(N)nc3)[nH]c2n1"
label = "not fulfilled"

[[record]]
compound = "C[C@@H]1COCCN1c1nc(N2CCOC[C@H]2C)c2nc(-c3cc(CO)cc4[nH]ccc34)[nH]c2n1"
label = "not fulfilled"

[[record]]
compound = "C[C@@H]1COCCN1c1nc(N2CCN(C)CC2)nc2[nH]c(-c3cccc4[nH]ccc34)nc12"
label = "fulfilled"

[[record]]
compound = "CC(C)[C@@H]1COCCN1c1nc(N2CCOC[C@H]2C)c2nc(-c3cccc4[nH]ccc34)[nH]c2n1"
label = "fulfilled"

[[record]]
compound = "C[C@@H]1COCCN1c1nc(N2CCO[C@H](CO)C2)nc2[nH]c(-c3cccc4[nH]ccc34)nc12"
label = "not fulfilled"

[[record]]
compound = "C[C@@H]1COCCN1c1nc(N2CC3COCC3C2)nc2[nH]c(-c3cccc4[nH]ccc34)nc12 (stereo partly shown)"
label = "fulfilled"

[[record]]
compound = "COc1cc(-c2nc3c(N4CCOC[C@H]4C)nc(N4CCOC[C@@H]4C)nc3[nH]2)c2cc[nH]c2c1"
label = "fulfilled"

[[record]]
compound = "C[C@@H]1COCCN1c1nc(N2CCC(C(F)(F)F)CC2)nc2[nH]c(-c3cccc4[nH]ccc34)nc12"
label = "not fulfilled"

[[record]]
compound = "C[C@@H]1COCCN1c1nc(N2CCOC[C@H]2C)c2nc(-c3ccc(N)nc3)[nH]c2n1"
label = "fulfilled"

[[record]]
compound = "C[C@@H]1COCCN1c1nc(N2CCO[C@@H](CO)C2)nc2[nH]c(-c3cccc4[nH]ccc34)nc12"
label = "fulfilled"

[[record]]
compound = "COC(=O)c1cc(-c2nc3c(N4CCOC[C@H]4C)nc(N4CCOC[C@H]4C)nc3[nH]2)c2cc[nH]c2c1"
label = "not fulfilled"

[[record]]
compound = "CCC[C@@H]1COCCN1c1nc(N2CCOC[C@H]2C)c2nc(-c3cccc4[nH]ccc34)[nH]c2n1"
label = "not fulfilled"

[[record]]
compound = "C[C@@H]1CN(c2nc(N3CCOC[C@H]3C)c3nc(-c4cccc5[nH]ccc45)[nH]c3n2)C[C@H](C)O1"
label = "fulfilled"

[[record]]
compound = "C[C@@H]1COCCN1c1nc(N2CCCOCC2)nc2[nH]c(-c3cccc4[nH]ccc34)nc12"
label = "fulfilled"

